Examples of binders with documented Kd follow.
Molecular target: T1, Cynomolgus CD3εδ Fc heterodimer (Cy CD3ε Fc + CD3δ Fc-HIS) (cynomolgus, UniProt Q95LI5 22-117; Q95LI8 22-100)
T1 construct: range 22-117;range 22-100; Made in HEK 293 cells with a heterologous signal peptide; also called Cy CD3εδ-Fc; cyno CD3εδ Fc; not shown: Fc; Fc followed by HIS tag
T1 sequence (Q95LI5 22-117, stated change not applied, form in doubt, chain 1 of 2): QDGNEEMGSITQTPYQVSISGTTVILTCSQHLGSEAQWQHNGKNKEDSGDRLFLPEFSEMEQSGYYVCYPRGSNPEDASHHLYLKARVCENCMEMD
T1 sequence (Q95LI8 22-100, stated change not applied, form in doubt, chain 2 of 2): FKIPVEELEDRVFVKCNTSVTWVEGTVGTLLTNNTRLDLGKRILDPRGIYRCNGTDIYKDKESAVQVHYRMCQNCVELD
Test: BLI (Octet), Fab monovalent, pH 6.0
Numbers only here, please. The scale is nM.

Some binders with recorded Kd:
binder="Antibody No. V002 (ADI-67445) Fab (Fab, V domains shown, Fab by papain digestion of the IgG1) VH: QVQLVQSGAEVKKPGASVKVSCKASGFNIKDYYMHWVRQAPGQRLEWMGWIDLENAETIYDAKFQDRVTITRDTSASTAYMELSSLRSEDTAVYYCARDAYGRYFYDEWGQGTLVTVSS VL: DIVMTQSPDSLAVSLGERATINCKSSQSLLNARTGKNYLAWYQQKPGQPPKLLIYWASTRESGVPDRFSGSGSGTDFTLTISSLQAEDVAVYYCKQSYSRRTFGGGTKVEIK" numeric_readout=8
binder="Antibody No. V015 (ADI-76358) Fab (Fab, V domains shown, Fab by papain digestion of the IgG1) VH: QVQLVQSGAEVKKPGASVKVSCKASGFNIKDYYMHWVRQAPGQRLEWMGWIDLENADTIYDAKFQGRVTITRDTSASTAYMELSSLRSEDTAVYYCARDQYGRYFYDVWGQGTLVTVSS VL: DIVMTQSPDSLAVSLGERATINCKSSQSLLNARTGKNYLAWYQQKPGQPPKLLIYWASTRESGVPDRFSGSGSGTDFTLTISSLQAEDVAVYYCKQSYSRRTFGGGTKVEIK" numeric_readout=29

Read the next record carefully.
Prompt: For the binder Antibody No. V007 (ADI-67450) Fab (Fab, V domains shown, Fab by papain digestion of the IgG1) VH: QVQLVQSGAEVKKPGASVKVSCKASGFNIDDYYMHWVRQAPGQRLEWMGWIDLENANTIDDAKFQGRVTITRDTSASTAYMELSSLRSEDTAVYYCARDAYGRYFYDVWGQGTLVTVSS VL: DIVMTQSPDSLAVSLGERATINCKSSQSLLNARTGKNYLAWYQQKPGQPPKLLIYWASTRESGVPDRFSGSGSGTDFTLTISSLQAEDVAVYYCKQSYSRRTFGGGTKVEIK , what Kd is on record?
Response: 6.9
